Taken from patent US20170360911A1.

A collection of binders and their measured MFI (solvent ratio)
biological target: T1, HLA-A*24:02 (human); test: T2-A24 MHC class I stabilization, flow cytometry, anti-HLA-A24 17A10-FITC, peptide 100 ug/mL;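 further: peptide exposure stabilizes otherwise empty class I molecules on T2 cell surfaces, so surface class I level reflects how strongly the peptide binds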
T1 construct: whole, on cells; Empty class I molecule on T2-A24 cells

PLAIAAYWAL [As211_10] ... 2.1 ratio to solvent
PLLSLPLSL [As405_9] ... 2.8 ratio to solvent
HLSVLFGHV [As80_9] ... 2.1 ratio to solvent
KQLVWRGANV [As157_10] ... 1 ratio to solvent

State the recorded MFI (solvent ratio) for this entry: ATGLHLSVLF [As76_10]
2.1 ratio to solvent

State the recorded MFI (solvent ratio) for this entry: IYPPQFHKV (also called ASB4 peptide) [IV9]
3.3 ratio to solvent

State the recorded MFI (solvent ratio) for this entry: QIDVDTVFEV (41-50 follows from start and length) [As41_10]
1.1 ratio to solvent

State the recorded MFI (solvent ratio) for this entry: MLEAGAEANL (read as 39 from its place between 38 and 40) [As271_10]
1.2 ratio to solvent
